System: OPM-2 myeloma cell line
Assay: Cytotoxicity, flow cytometry (AnnexinV/propidium iodide negativity), OPM-2
Format: cell-based, human
Conditions: 25 µM, 24 h, second round (Table 3)

| Molecule | MM Cells % Alive OPM-2 |
| --- | --- |
| CC(=O)OC(C)(C)C1OC23OC1CC(C)C2C1(C)CCC24CC25CCC(OC2OCC(O)C(O)C2O)C(C)(C)C5CCC4C1(C)C3O (stereo not shown) [Compound 3] | 88.8 ± 1.8% |
| CC(=O)OC(C)(C)C1OC23OC1CC(C)C2C1(C)CCC24CC25CCC(OC2OCC(O)C(O)C2O)C(C)(C)C5CCC4C1(C)C3O (stereo not shown) [Compound 4] | 90.3 ± 3.7% |
| COC(C)(C)C1OC23OC1CC(C)C2C1(C)CCC24CC25CCC(OC2OCC(O)C(O)C2O)C(C)(C)C5CCC4C1(C)C3O (stereo not shown) [Compound 7] | 88.0 ± 4.5% |
| COC(C)(C)C1OC23OC1CC(C)C2C1(C)CCC24CC25CCC(OC2OCC(O)C(O)C2O)C(C)(C)C5CCC4C1(C)C3O (stereo not shown) [Compound 8] | 84.3 ± 4.5% |
| CC1CC2OC3(OC2C(C)(C)O)C1C1(C)CCC24CC25CCC(OC2OCC(O)C(O)C2O)C(C)(C)C5CCC4C1(C)C3O [Compound 5, cimigenol-3-O-α-L-arabinopyranoside] | 103.3 ± 1.4% |
| CC1CC2OC3(OC2C(C)(C)O)C1C1(C)CCC24CC25CCC(OC2OCC(O)C(O)C2O)C(C)(C)C5CCC4C1(C)C3O [Compound 6, cimigenol-3-O-β-D-xylopyranoside] | 99.5 ± 1.8% |
| C=C(C)C1OC23OC1CC(C)C2C1(C)CCC24CC25CCC(OC2OCC(O)C(O)C2O)C(C)(C)C5CCC4C1(C)C3O (stereo not shown) | 100.0 ± 1.9% |

----------
System: peripheral blood mononuclear cells (PBMCs) of healthy donors
Assay: Cytotoxicity, flow cytometry (AnnexinV/propidium iodide negativity), PBMC of healthy donors
Format: cell-based, human
Settings: 25 µM, 24 h, second round (Table 3)
Known PBMC % Alive of a selection of compounds

| Compound | Target | PBMC % Alive / % |
| --- | --- | --- |
| CC(=O)OC(C)(C)C1OC23OC1CC(C)C2C1(C)CCC24CC25CCC(OC2OCC(O)C(O)C2O)C(C)(C)C5CCC4C1(C)C3O (stereo not shown) [Compound 4] | peripheral blood mononuclear cells (PBMCs) of healthy donors | 72.7 |
| COC(C)(C)C1OC23OC1CC(C)C2C1(C)CCC24CC25CCC(OC2OCC(O)C(O)C2O)C(C)(C)C5CCC4C1(C)C3O (stereo not shown) [Compound 8] | peripheral blood mononuclear cells (PBMCs) of healthy donors | 96.3 |
| CC(=O)OC(C)(C)C1OC23OC1CC(C)C2C1(C)CCC24CC25CCC(OC2OCC(O)C(O)C2O)C(C)(C)C5CCC4C1(C)C3O (stereo not shown) [Compound 3] | peripheral blood mononuclear cells (PBMCs) of healthy donors | 98.3 |
| COC(C)(C)C1OC23OC1CC(C)C2C1(C)CCC24CC25CCC(OC2OCC(O)C(O)C2O)C(C)(C)C5CCC4C1(C)C3O (stereo not shown) [Compound 7] | peripheral blood mononuclear cells (PBMCs) of healthy donors | 81.0 |
